src = PubChem BioAssay (NCI)

Assay: NCI Yeast Anticancer Drug Screen. Data for the mec2-1 strain (AID 157)
Settings: S. cerevisiae mec2-1 strain, at 50.0 µM (retest, dose inferred, filed as 5.0)
The panel holds about 79,000 compounds, 15% with a hit somewhere; the sample as a whole holds those more often. Active and inactive are the calls of the source. Rule as the data show it: active = growth inhibition above about 70%; inactive = the rest.
Hi! Could you answer with just one of these? Y for active, N for inactive

Reference set (5 entries):
| compound | qualitativeLabel |
| --- | --- |
| O=[N+]([O-])c1cccc(/C=N/Nc2ccc3ccccc3n2)c1O | N |
| COC1=CC(=O)c2c(O)c3c(c(O)c2C1=O)OC1(Oc2c(cc4cc(C)oc(=O)c4c2O)CC1O)C3O (stereo not given) | Y |
| CC(=O)OC(C)C1C2=C(C(=O)CC1(C)O)C(=O)c1c(ccc(-c3ccc4c(c3O)C(=O)C3=C(C4=O)C(C(C)OC(C)=O)C(C)(O)CC3=O)c1O)C2=O (stereo not given) | Y |
| O=C(NNc1nc(-c2ccccc2)cs1)C(F)(F)F | Y |
| COc1ccc(-c2nc(N)n(C)c2SSc2c(-c3ccc(OC)cc3)nc(N)n2C)cc1 | N |

Task item: Each compound tested received a call. Report the one for COc1ccc2oc(-c3ccc(OC)c(OC)c3OC)cc(=O)c2c1 .
Reply: N

Task item: Each compound tested received a call. Report the one for CCCCCCCCCc1ccc(O)c(Cl)c1 .
Reply: Y

Task item: Each compound tested received a call. Report the one for CCCCCCCCC[n+]1cccc(C(=O)c2ccccc2)c1 .
Reply: N

Task item: Each compound tested received a call. Report the one for NC(=S)N1N=C2c3ccccc3CC[C@H]2[C@@H]1c1cccs1 .
Reply: N

Task item: Each compound tested received a call. Report the one for CCc1ccc2c(-c3ccccc3)c3ccccc3c(-c3ccccc3)c2c1 .
Reply: N

###

Examples of molecules with documented growth inhibition follow.
Assay: NCI Yeast Anticancer Drug Screen. Data for the rad50 strain (AID 155);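 also: 0% = growth of vehicle-only cultures of the same strain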
Conditions: S. cerevisiae rad50 strain growth inhibition; at 5.0 µM (retest, dose inferred, filed as 0.5); hits give high values
This is part of a sample that, as a whole, favours compounds with a hit. Of some 79,000 tested, about 15% had one in any assay. Active and inactive are the calls of the source. Cut-off read from the data, not from the text of the source: active = growth inhibition above about 70%; inactive = the rest.

| molecule | readoutType | assayResult |
| --- | --- | --- |
| O=C1c2ccccc2C(=O)C2OC12 (stereo not given) | growth inhibition | 48% (inactive) |
| O=C1Nc2c(Cl)cc(Cl)cc2/C1=N/N=C/c1ccccc1O | growth inhibition | 12% (inactive) |

Task item: Give its growth inhibition value. Item: CCC/C=C1/OC(=O)C2=C[C@H]3CC[C@]21[C@]1(OC(=O)C2=C1CCC=C2)[C@H]3CCC
Reply: 0% (inactive)

Task item: Give its growth inhibition value. Item: O=C1/C(=C/c2ccc(Cl)cc2)CCC/C1=C\c1ccc(O)c(CN2CCCCC2)c1
Reply: 31% (inactive)

Task item: Give its growth inhibition value. Item: CCCCOc1ccc(CN2CCOC2=O)cc1
Reply: 3% (inactive)

Task item: Give its growth inhibition value. Item: C#C[C@]1(OC(C)=O)CC[C@H]2[C@@H]3CCC4=CC(=O)CC[C@@H]4[C@H]3CC[C@@]21C
Reply: 4% (inactive)

Task item: Give its growth inhibition value. Item: c1ccc2c(c1)CCc1[nH]c3c(c1-2)-c1ccccc1CC3
Reply: 24% (inactive)
